Tested on: SN12C renal
Assay: NCI-60 one-dose screen, 48 h
Details: 10 µM unless noted
About 83,000 compounds went through this panel and 20% of them were active in at least one assay; those are over-represented in the sample as a whole. Calls of active or inactive are those of the source. Rule for the calls: active = growth percent below 10; inactive = the rest.
Answer with one of the outcomes given here: True (active), False (inactive)

Dear colleague, could you share the recorded outcome for Cc1cc(=O)oc2cc(Oc3nc(-c4ccccc4)cn4c(-c5ccccc5)cnc34)ccc12 when you have a moment?
False

Dear colleague, could you share the recorded outcome for COc1cc2ncnc(Nc3ccc(S(=O)(=O)Nc4cc(C)on4)cc3)c2cc1OCCCN1CCOCC1 when you have a moment?
False

Dear colleague, could you share the recorded outcome for CCN1C(=O)N(CC)C2C1NN=c1s/c(=C\c3ccc([N+](=O)[O-])cc3)c(=O)n12 (stereo unspecified) when you have a moment?
False

Dear colleague, could you share the recorded outcome for C#Cc1c(I)n(C2OC(CO[Si](C)(C)C(C)(C)C)C3OC(C)(C)OC32)c(=O)[nH]c1=O (stereo unspecified) when you have a moment?
False

Dear colleague, could you share the recorded outcome for CCOC(=O)c1c(C)c2c(n1Cc1ccccc1)CSc1cc(C#N)c(=O)[nH]c1-2 when you have a moment?
False

Dear colleague, could you share the recorded outcome for Cc1cc2nc(C(Cl)Cl)nc(-c3ccccc3)n2n1 when you have a moment?
False

Dear colleague, could you share the recorded outcome for CN(C)CCOc1ccc(/C(=C(/CCCCCCCCCC[P+](c2ccccc2)(c2ccccc2)c2ccccc2)c2ccccc2)c2ccccc2)cc1 when you have a moment?
True

Dear colleague, could you share the recorded outcome for CCN1C(=O)N(CC)C2C1NC(=S)N2/N=C/C=C/c1cccs1 (stereo unspecified) when you have a moment?
False

Dear colleague, could you share the recorded outcome for O=[N+]([O-])c1ccc(Oc2cccc3c(Oc4ccc([N+](=O)[O-])cc4[N+](=O)[O-])cccc23)c([N+](=O)[O-])c1 when you have a moment?
False

Dear colleague, could you share the recorded outcome for COc1ccc(CNc2c3ccccc3nc3ccccc23)cc1OC when you have a moment?
False

Dear colleague, could you share the recorded outcome for COC1=C(OC)C(=O)C(CCCCCCCCCCO)=C(C)C1=O when you have a moment?
False

Dear colleague, could you share the recorded outcome for O=C1c2c(c3c4cccnc4[nH]c3c3ccc4ccccc4c23)C(=O)N1O when you have a moment?
False

Dear colleague, could you share the recorded outcome for O=C(OCC(O)C(=O)NC12CC3CC(CC(C3)C1)C2)c1cccc(Br)c1 (stereo unspecified) when you have a moment?
False

Dear colleague, could you share the recorded outcome for CSc1nc(N)c2c(n1)NC(c1ccccc1)C1CCc3ccccc3C1=N2 (stereo unspecified) when you have a moment?
False

Dear colleague, could you share the recorded outcome for Cn1ccnc1C(=O)/C=C/c1ccc(C(=O)Nc2c(F)c(F)c(F)c(F)c2F)cc1 when you have a moment?
True

Dear colleague, could you share the recorded outcome for CCN1C(=O)N(CC)C2C1NN=c1s/c(=C3\C(=O)N(C)c4ccccc43)c(=O)n12 (stereo unspecified) when you have a moment?
False

Dear colleague, could you share the recorded outcome for Cc1cc2c(C(C)C)c(O)c(O)c(/C=N/O)c2c(O)c1-c1c(C)cc2c(C(C)C)c(O)c(O)c(/C=N/O)c2c1O when you have a moment?
False

Dear colleague, could you share the recorded outcome for c1ccc2cc(Cn3cc[n+](Cc4ccc5ccccc5c4)c3)ccc2c1 when you have a moment?
False

Dear colleague, could you share the recorded outcome for C#C[C@]1(O)CC[C@H]2[C@@H]3CC=C4c5sc(-c6cccc(C)c6)nc5CC[C@]4(C)[C@H]3CC[C@@]21C when you have a moment?
False

Dear colleague, could you share the recorded outcome for CC1(C)CC[C@]2(CO)CC[C@]3(C)C(=CC[C@@H]4[C@@]5(C)CCNCC(C)(C)[C@@H]5CC[C@]43C)[C@@H]2C1 when you have a moment?
False

Dear colleague, could you share the recorded outcome for CC/C(=C(/c1ccc(Cl)cc1)c1ccc(OCCN2CCCC2)cc1)c1ccccc1 when you have a moment?
False

Dear colleague, could you share the recorded outcome for CC(C)(C)CC(C)(C)Nc1c(-c2c(O)c3ccccc3oc2=O)nc2sccn12 when you have a moment?
False

Dear colleague, could you share the recorded outcome for Cc1ccc(Nc2cc(N)nc(N)n2)cc1 when you have a moment?
False

Dear colleague, could you share the recorded outcome for C=C1C(=O)O[C@H]2[C@H]1CC/C(COC(=O)NCc1ccc(Cn3c(=O)sn(CCCC)c3=O)cc1)=C\CC[C@@]1(C)O[C@@H]21 when you have a moment?
False

Dear colleague, could you share the recorded outcome for COc1cc2c(c(OC)c1OC)CCC(c1cccc(C(=O)Nc3ccc([N+](=O)[O-])cc3)c1)O2 (stereo unspecified) when you have a moment?
False

Dear colleague, could you share the recorded outcome for COc1ccc(-c2nc3cc(C(=O)NC4CCCCC4)ccc3n2C2CCCCC2)cc1 when you have a moment?
False

Dear colleague, could you share the recorded outcome for CN(Cc1ccccc1)c1nc(Cl)c(C2CC(c3ccc(Cl)cc3)=NN2c2cc(Cl)cc(Cl)c2)s1 (stereo unspecified) when you have a moment?
False

Dear colleague, could you share the recorded outcome for COC(=O)c1c(C)nc(C)c2c1C(=O)C(Br)=C(NCCN1CCOCC1)C2=O when you have a moment?
False

Dear colleague, could you share the recorded outcome for C=CN(C(=O)N1CCN(c2cc3c(cc2F)c(=O)c(C(=O)O)cn3C2CC2)CC1)c1nc(-c2ccc(C)cc2)cs1 when you have a moment?
True

Dear colleague, could you share the recorded outcome for CCNCCNc1c(C)c(-c2ccc(C(F)(F)F)cc2)c(C#N)c2nc3ccccc3n12 when you have a moment?
False

Dear colleague, could you share the recorded outcome for C=CCn1c(SCC(=O)Nc2ccc(C(=O)/C=C/c3cc(OC)c(OC)c(OC)c3)cc2)nnc1-c1cc(-c2ccc(S(N)(=O)=O)cc2)nc2ccccc12 when you have a moment?
False

Dear colleague, could you share the recorded outcome for COc1cc2c(c(OC)c1OC)CCC(c1cccc(C(=O)Nc3ccccc3Br)c1)O2 (stereo unspecified) when you have a moment?
False

Dear colleague, could you share the recorded outcome for Nc1ncnc2c1N=C(c1ccc([N+](=O)[O-])cc1)CC(c1ccc3c(c1)OCO3)N2 (stereo unspecified) when you have a moment?
False

Dear colleague, could you share the recorded outcome for O=C(Nc1cccc2c1C(=O)c1cccc(NC(=O)c3ccc(C(=O)Nc4cccc5c4C(=O)c4cccc(NC(=O)c6ccccc6)c4C5=O)cc3)c1C2=O)c1ccccc1 when you have a moment?
False

Dear colleague, could you share the recorded outcome for Cc1ccc2c(c1)CC(O)CC1C(=O)N(CCO)CC(=O)N21 (stereo unspecified) when you have a moment?
False

Dear colleague, could you share the recorded outcome for CCOC(=O)/C(=C\c1ccccc1Cl)P(=O)(OCC)OCC when you have a moment?
False
